MEASUREMENT_TARGET: profilin-1 M114T (ALS-associated variant) (UniProt P07737 1-140, M114T)
Sequence (P07737 whole entry M114T): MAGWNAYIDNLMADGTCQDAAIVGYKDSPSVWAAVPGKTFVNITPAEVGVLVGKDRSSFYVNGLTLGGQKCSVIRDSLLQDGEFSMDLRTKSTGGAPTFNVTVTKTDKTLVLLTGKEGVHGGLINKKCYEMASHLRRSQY
RUN_DESCRIPTION: fluorescence polarisation
pKd: −log10 of the molar value. Ends that are not written are not given here.

{"columns": ["BINDER", "pKd"],
 "data": [
  ["IPPPPPLPGVASIPPPPPLPG (also: FITC, position not given here) [FITC-mDia1-derived poly-L-proline (PLP) peptide]", 5.69]
]}
